experiment: Selectivity ratio of Ki for delta opioid receptor in mouse whole brain membranes without cerebellum to Ki for kappa opioid receptor in guinea pig cerebellum membranes; format: cell membranes
Field: label. Allowed values: satisfied (Ratio Ki < 20) or not satisfied (Ratio Ki >= 20).

Examples from the recorded data:
{"compound.string": "CN(C(=O)/C=C/c1ccoc1)[C@H]1CC[C@@]2(O)[C@H]3Cc4cccc5c4[C@@]2(CCN3CC2CC2)[C@H]1O5", "assigned.category": "not satisfied"}
{"compound.string": "CN(C(=O)/C=C/c1ccoc1)[C@@H]1CC[C@@]2(O)[C@H]3CC4=C(CC(=O)CC4)[C@@]2(CCN3CC2CC2)C1", "assigned.category": "satisfied"}
{"compound.string": "CN(C(=O)/C=C/c1ccoc1)[C@H]1CC[C@@]2(O)[C@H]3CC4=C(CCCC4)[C@@]2(CCN3CC2CC2)C1", "assigned.category": "satisfied"}

Challenge: API: query returns whether the molecule falls strictly under 20 in Ratio Ki. Query: "CN(C(=O)/C=C/c1ccoc1)[C@H]1CC[C@@]2(O)[C@H]3CC4=C(C[C@@H](O)CC4)[C@@]2(CCN3CC2CC2)C1"
Response given: satisfied

Challenge: Say whether its Ratio Ki is strictly beneath 20. Entry: "CN(C(=O)/C=C/c1ccoc1)[C@@H]1CC[C@@]2(O)[C@H]3CC4=C(C[C@H](O)CC4)[C@@]2(CCN3CC2CC2)C1"
Response given: not satisfied

Challenge: Bench note: check whether "CN(C(=O)/C=C/c1ccoc1)[C@H]1CC[C@@]2(O)[C@H]3Cc4ccc(O)cc4[C@@]2(CCN3CC2CC2)C1" shows Ratio Ki below 20
Response given: satisfied

Challenge: Hello, is Ratio Ki of the following molecule strictly smaller than 20? "CN(C(=O)/C=C/c1ccoc1)[C@H]1CC[C@@]2(O)[C@H]3Cc4ccccc4[C@@]2(CCN3CC2CC2)C1"
Response given: satisfied

Challenge: Is the reported Ratio Ki for "CN(C(=O)/C=C/c1ccoc1)[C@@H]1CC[C@@]2(O)[C@H]3CC4=C(C[C@@H](O)CC4)[C@@]2(CCN3CC2CC2)C1" strictly below 20?
Response given: not satisfied

Challenge: Please determine if "CN(C(=O)/C=C/c1ccoc1)[C@H]1CC[C@H]2[C@H]3CC4=C(CCCC4)[C@@]2(CCN3CC2CC2)C1" is below 20 in terms of Ratio Ki.
Response given: satisfied

Challenge: Confirm or reject: Ratio Ki of "CN(C(=O)/C=C/c1ccoc1)[C@H]1CC[C@@]2(O)[C@H]3CC4=C(C[C@H](O)CC4)[C@@]2(CCN3CC2CC2)C1" lies strictly below 20
Response given: satisfied

Challenge: Quick check: does "CN(C(=O)/C=C/c1ccoc1)[C@@H]1CC[C@@]2(O)[C@H]3Cc4ccccc4[C@@]2(CCN3CC2CC2)C1" have Ratio Ki under 20?
Response given: not satisfied
